Assayed target: JAK2 (recombinant purified GST-tagged catalytic domain) (Homo sapiens (Human), UniProt O60674)
Sequence (O60674 849-1124): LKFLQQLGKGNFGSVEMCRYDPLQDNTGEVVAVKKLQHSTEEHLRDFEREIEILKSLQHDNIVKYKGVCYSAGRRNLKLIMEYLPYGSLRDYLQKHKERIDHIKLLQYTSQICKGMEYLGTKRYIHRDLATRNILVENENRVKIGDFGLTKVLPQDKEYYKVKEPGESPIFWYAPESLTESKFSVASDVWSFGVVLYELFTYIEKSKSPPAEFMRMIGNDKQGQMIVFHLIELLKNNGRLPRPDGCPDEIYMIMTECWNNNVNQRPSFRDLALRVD
Experimental details: Jak Biochemical HTRF Assay (JAK2)
Settings: [ATP] 8.5 μM
Experimental: Jak Biochemical HTRF Assay Protocol The ability of compounds to inhibit the activity of JAK1, JAK2, JAK3, and Tyk2 was measured using a recombinant purified GST-tagged catalytic domain for each enzyme (Invitrogen JAK1 #M4290, JAK2 #M4290, JAK3 #M4290, Tyk2 #M4290) in an HTRF format biochemical assay. […] Plates were shaken and centrifuged and then incubated 60 minutes at room temperature and then read on a Perkin Elmer Envision (λex=337 nm, λem=665 and 615 nm, TRF delay time=20 μs). […]
Endpoint: IC50 (nM)
Note: unit nM is implicit; provide only the numeric part.

Below, 3 compounds whose answers are already recorded.
CC(C)(C)OC(=O)N1CC[C@](CC#N)(n2nc(Nc3ccc(S(C)(=O)=O)cc3)c3c(=O)[nH]ccc32)[C@H](F)C1: 0.08
N#CC[C@]1(n2nc(Nc3cc(F)c4nccc(Cl)c4c3)c3c(=O)[nH]ccc32)CCOC1 (single isomer, unassigned): 348
CN(C)S(=O)(=O)c1ccc(Nc2nn(C3(CC#N)CCN(C(=O)OC(C)(C)C)CC3)c3cc[nH]c(=O)c23)cc1: 0.28

Okay, next one:
query: Item under review: "Cc1cccc(Nc2nn(C3(CC#N)CCN(C(=O)OC(C)(C)C)CC3)c3cc[nH]c(=O)c23)c1" . Reported IC50?
result: 3.22

* * *

Assayed target: JAK2 (recombinant purified GST-tagged catalytic domain) (Homo sapiens (Human), UniProt O60674)
Experimental details: Jak Biochemical HTRF Assay (JAK2)
Settings: [ATP] 8.5 μM
Each entry below carries its reported pIC50.
Recall that pIC50 is obtained by taking minus log10 of the concentration measured in molar.

CC(C)(C)OC(=O)C(C)(C)N1Cc2cc(Nc3nn(C4(CC#N)CCCC4)c4cc[nH]c(=O)c34)ccc2C1=O: 9.13

query: Reported pIC50, compound "CC1CN(S(=O)(=O)c2ccc(Nc3nn([C@]4(CC#N)CCCOC4)c4cc[nH]c(=O)c34)cc2)C1" : ____
result: 9.00

query: Next: "COC1CN([C@H]2CC[C@@](CC#N)(n3nc(Nc4ccc(Cl)cc4)c4c(=O)[nH]ccc43)CC2)C1"
result: 6.99

query: // repeat for CC(C)S(=N)(=O)c1ccc(Nc2nn([C@]3(CC#N)CCCOC3)c3cc[nH]c(=O)c23)cc1 (single isomer, unassigned) [Example 5-232] and report
result: 9.22

query: // query: "CN(C)S(=O)(=O)c1ccc(Nc2nn(C3(CC#N)CCN(C(=O)C4CC(F)(F)C4)CC3)c3cc[nH]c(=O)c23)cc1"
result: 9.29

query: Another compound to look at: "CC(C)(C)OC(=O)N1CCC(CC#N)(n2nc(Nc3ccc4c(c3)CN(C(C)(C)C)S4(=O)=O)c3c(=O)[nH]ccc32)CC1"
result: 9.47

* * *

Assayed target: JAK2 (recombinant purified GST-tagged catalytic domain) (Homo sapiens (Human), UniProt O60674)
Experimental details: Jak Biochemical HTRF Assay (JAK2)
Settings: [ATP] 8.5 μM
Endpoint: IC50 (nM)
Express it in nM; write the number only.

# example entries with known answers
CC(C)(C)N1Cc2cc(Nc3nn([C@]4(CC#N)CCOC[C@@H]4F)c4cc[nH]c(=O)c34)ccc2S1(=O)=O (single isomer, unassigned) [Example 5-256]: 0.06
CC(C)NS(=O)(=O)c1ccc(Nc2nn(C3(CC#N)CCN(C(=O)OC(C)(C)C)CC3)c3cc[nH]c(=O)c23)cc1F [Example 5-295]: 0.6
CC(C)(C)OC(=O)[C@@H]1CC[C@@](CC#N)(n2nc(Nc3ccc4c(c3)CN(C3CCCC3)C4=O)c3c(=O)[nH]ccc32)CO1 [Example 5-102]: 0.2

Okay, next one:
query: Quick one: IC50 of CN(C)S(=O)(=O)c1ccc(Nc2nn(C3(CC#N)CCN(C(=O)OCC(F)(F)F)CC3)c3cc[nH]c(=O)c23)cc1 [Example 12] ?
result: 0.24

* * *

Assayed target: JAK1 (recombinant purified GST-tagged catalytic domain) (Homo sapiens (Human))
Experimental details: Jak Biochemical HTRF Assay (JAK1)
Settings: [ATP] 31.8 μM
Class key for IC50 values: LOW = under 0.1 nM, MEDIUM = from 0.1 nM up to 0.7 nM, HIGH = 0.7 nM and over

CC(C)(C)OC(=O)N1CC(CC#N)(n2nc(Nc3ccc(F)cc3)c3c(=O)[nH]ccc32)C1: HIGH

query: Category of "CC(C)S(=O)(=O)c1ccc(Nc2nn([C@]3(CC#N)CCCOC3)c3cc[nH]c(=O)c23)cc1" , please.
result: LOW

* * *

Assayed target: JAK2 (recombinant purified GST-tagged catalytic domain) (Homo sapiens (Human))
Experimental details: Jak Biochemical HTRF Assay (JAK2)
Settings: [ATP] 8.5 μM
pIC50: −log10 of the molar value.
Assign Criterion met to entries whose pIC50 meets or exceeds 9; assign Criterion not met to the rest.

Look over these answered cases.
N#CC[C@@]1(n2nc(Nc3ccc4nccc(F)c4c3)c3c(=O)[nH]ccc32)CCOC1 (single isomer, unassigned): Criterion not met
N#CC[C@]1(n2nc(Nc3ccc(Cl)cc3)c3c(=O)[nH]ccc32)CCOC1 (single isomer, unassigned): Criterion not met

query: Does the compound "CN(C)S(=O)(=O)c1ccc(Nc2nn(C3(CC#N)CCN(Cc4ccc(N5CCCC5=O)cc4)CC3)c3cc[nH]c(=O)c23)cc1" have recorded pIC50 that is 9 or more?
result: Criterion not met

query: Proceed to "CC1(C)C(=O)Nc2cc(Nc3nn([C@]4(CC#N)CCCOC4)c4cc[nH]c(=O)c34)ccc21"
result: Criterion met

query: And for "CC(C)C(C)(C)S(=O)(=O)c1ccc(Nc2nn([C@]3(CC#N)CCCOC3)c3cc[nH]c(=O)c23)cc1" ?
result: Criterion met

query: Now consider N#CCC1(n2nc(Nc3ccc(C(F)(F)F)cc3)c3c(=O)[nH]ccc32)CCC(N2CC(F)C2)CC1 (single isomer, unassigned) [Example 18-2] and answer again.
result: Criterion not met

query: Thanks! And CO[C@H](c1ccc(Nc2nn(C3(CC#N)CCN(C(=O)OC(C)(C)C)CC3)c3cc[nH]c(=O)c23)cc1)C(F)(F)F (single isomer, unassigned) ?
result: Criterion not met

query: Try the compound CO[C@@H](c1ccc(Nc2nn(C3(CC#N)CCN(C(=O)OC(C)(C)C)CC3)c3cc[nH]c(=O)c23)cc1)C(F)(F)F (single isomer, unassigned)
result: Criterion not met

* * *

Reported values of IC50 for individual entries
Assayed target: JAK2 (recombinant purified GST-tagged catalytic domain) (Homo sapiens (Human), UniProt O60674)
Experimental details: Jak Biochemical HTRF Assay (JAK2)
Settings: [ATP] 8.5 μM
Write your answer as a measured quantity: the number, then the unit.

N#CCC1(n2nc(Nc3ccc(C(N)C(F)(F)F)cc3)c3c(=O)[nH]ccc32)CCCC1 (single isomer, unassigned) [Example 5-88]: 1.56 nM
N#CCC1(n2nc(Nc3ccc(C(F)(F)F)cc3)c3c(=O)[nH]ccc32)CCC2(CC1)OCCO2: 21.6 nM
CN(C)C(c1ccc(Nc2nn([C@]3(CC#N)CC[C@@H](C(=O)OC(C)(C)C)OC3)c3cc[nH]c(=O)c23)cc1)C(F)(F)F (single isomer, unassigned) [Example 5-214]: 0.32 nM
N#CC[C@@]1(n2nc(Nc3ccc(C(N)C(F)(F)F)cc3)c3c(=O)[nH]ccc32)CCCOC1 (single isomer, unassigned) [Example 5-188]: 0.34 nM
CC(C)(C)OC(=O)N1CCC(CC#N)(n2nc(Nc3ccc(S(N)(=O)=O)cc3)c3c(=O)[nH]ccc32)CC1: 0.23 nM
CN(C)S(=O)(=O)c1ccc(Nc2nn(C3(CC#N)CCN(Cc4ccc(F)cc4)CC3)c3cc[nH]c(=O)c23)cc1: 0.63 nM

query: # IC50 lookup, item "CN(C)S(=O)(=O)c1ccc(Nc2nn(C3(CC#N)CCN(C(=O)CCC4CC4)CC3)c3cc[nH]c(=O)c23)cc1"
result: 1.15 nM

query: "CO[C@@H]1CCN(C(=O)c2ccc(Nc3nn([C@]4(CC#N)CCCOC4)c4cc[nH]c(=O)c34)cc2C)C1" ?
result: 1.36 nM

query: Query "N#CC[C@@]1(n2nc(Nc3ccccc3)c3c(=O)[nH]ccc32)CCCOC1" next
result: 2.81 nM

* * *

Assayed target: JAK1 (recombinant purified GST-tagged catalytic domain) (Homo sapiens (Human), UniProt P23458)
Sequence (P23458 875-1153): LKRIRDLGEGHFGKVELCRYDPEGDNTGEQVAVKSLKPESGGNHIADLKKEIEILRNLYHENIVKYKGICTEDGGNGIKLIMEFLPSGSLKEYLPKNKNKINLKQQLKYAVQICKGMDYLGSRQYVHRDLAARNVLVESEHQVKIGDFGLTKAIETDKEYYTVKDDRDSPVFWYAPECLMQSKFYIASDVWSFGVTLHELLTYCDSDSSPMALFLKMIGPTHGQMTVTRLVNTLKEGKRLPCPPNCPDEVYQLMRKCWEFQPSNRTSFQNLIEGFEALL
Experimental details: Jak Biochemical HTRF Assay (JAK1)
Settings: [ATP] 31.8 μM
Recorded measurements of IC50, one per entry
Return type: number; implicit unit nM.

Examples with their reported IC50 follow.
CC(C)(C)N1Cc2cc(Nc3nn(C4(CC#N)CCCCC4)c4cc[nH]c(=O)c34)ccc2S1(=O)=O: 0.08
CC(C)(C)N1Cc2cc(Nc3nn([C@]4(CC#N)CC[C@@H](N5CC(F)C5)CC4)c4cc[nH]c(=O)c34)ccc2S1(=O)=O: 0.21

We next turn to a different molecule, shown below.
query: May I ask what IC50 has been recorded for "Cc1cc(Nc2nn([C@]3(CC#N)CC[C@@H](C(=O)OC(C)(C)C)OC3)c3cc[nH]c(=O)c23)ccc1C(=O)N1CCOCC1" ?
result: 0.13
